- Tested on: SF-268 CNS
- PROCEDURE_TEXT: NCI-60 one-dose screen, 48 h
- ASSAY_SETUP: 10 µM unless noted
The panel holds about 83,000 compounds, 20% with a hit somewhere; the sample as a whole holds those more often. Active and inactive are the calls of the source. The calls were made as follows: active = growth percent below 10; inactive = the rest.
Result category, one only: YES for active, NO for inactive

// query Please indicate how the test categorized COc1cc(/C=C2\SC(=S)N(/C=C/c3nc4ccccc4[nH]c3=O)C2=O)cc(OC)c1OC .
// result NO

// query For CCCCCCCCCCCC[n+]1ccc(CCCCCCCCC)cc1 , which call appears in the assay record?
// result YES

// query Check the results log: what was the call for O=C(Cc1ccccc1)C(F)(F)F ?
// result NO

// query Returns: the outcome recorded for O=[N+]([O-])CC(O)c1ccccc1 (configuration not stated) in this assay.
// result NO

// query What outcome does the record of this test show for CCCCCCCCCCCC1N=C(N)N=C(N)N1c1cccc(Br)c1 (configuration not stated) ?
// result YES

// query # fetch the recorded call for CCOC(=O)C1(C)CCCC1N (configuration not stated) here
// result NO

// query Please state the recorded outcome for this molecule: O=C(NNc1ccccc1)OCc1ccccc1
// result NO

// query Recorded call for O=C(/C=C/c1ccccc1)c1ccccc1O ?
// result NO

// query # lookup: test call for CC(O)C(O)C(O)C(O)C(O)C(=O)NNc1ccccc1 (configuration not stated)
// result NO

// query Identify the outcome logged in this assay for the molecule shown: O=[N+]([O-])c1ccc(C2N(Cc3ccc(Cl)cc3)CCN2Cc2ccc(Cl)cc2)cc1
// result NO

// query What was the test verdict on COc1ccc2c(c1)c(CC(=O)O)c(C)n2C(=O)c1ccc(Cl)cc1 ?
// result NO

// query Outcome logged for CCOc1ccc(C(CN2CCOCC2)C(C)=O)cc1OC (configuration not stated) in this assay:
// result NO
